Test system: galium
Assay: Test A postemergence herbicide test
Format: in vivo, Galium aparine
Conditions: 125 g ai/ha, 0 to 100 scale, 0 no effect, 100 complete control
assay_metric: Plant response rating, Galium
Please respond with just the number, no unit label.

Fill in the blank: the reported Plant response rating, Galium of COc1cc(C2CNC(=O)C2C(=O)Nc2ccc(F)cc2F)ccc1F (racemic) is ____.
0

Field entry: Cc1cc(C2CNC(=O)C2C(=O)Nc2ccc(F)c(F)c2F)ccc1F (racemic)
0

Field entry: Cc1ccc(C2CNC(=O)C2C(=O)Nc2ccc(F)cc2F)cc1 (racemic)
50

Field entry: Cc1cc(C2CNC(=O)C2C(=O)Nc2ccc(F)cc2F)ccc1F (racemic)
0
